molecular target: Prothrombin (Homo sapiens)
Measured property: Ki (nM)
// units = nM; emit number, no label

Prompt line: Notebook entry, Prothrombin (Homo sapiens) assay: Ki of CN[C@H](Cc1ccccc1)C(=O)N1CCC[C@H]1C(=O)N[C@H](C=O)CCCNC(=N)N [EFEGATRAN] = ?
Response line: 7

---

target: Tissue-type plasminogen activator (Homo sapiens); assay: Concentration required to inhibit tissue-type plasminogen activator (t-PA) was determined
Measured property: IC50 (nM)
# output: bare number, implied unit nM

Prompt line: Which IC50 value belongs to CC(O)[C@@H](C(=O)N[C@H](C)c1ccccc1)N(C)C(=O)[C@H](Cc1ccc([N+](=O)[O-])cc1)NC(=O)CCCN=C(N)N (stereo partly specified) ?
Response line: 700

---

biological target: Plasminogen (Homo sapiens, UniProt P00747)
Sequence (P00747 97-580 limits assumed): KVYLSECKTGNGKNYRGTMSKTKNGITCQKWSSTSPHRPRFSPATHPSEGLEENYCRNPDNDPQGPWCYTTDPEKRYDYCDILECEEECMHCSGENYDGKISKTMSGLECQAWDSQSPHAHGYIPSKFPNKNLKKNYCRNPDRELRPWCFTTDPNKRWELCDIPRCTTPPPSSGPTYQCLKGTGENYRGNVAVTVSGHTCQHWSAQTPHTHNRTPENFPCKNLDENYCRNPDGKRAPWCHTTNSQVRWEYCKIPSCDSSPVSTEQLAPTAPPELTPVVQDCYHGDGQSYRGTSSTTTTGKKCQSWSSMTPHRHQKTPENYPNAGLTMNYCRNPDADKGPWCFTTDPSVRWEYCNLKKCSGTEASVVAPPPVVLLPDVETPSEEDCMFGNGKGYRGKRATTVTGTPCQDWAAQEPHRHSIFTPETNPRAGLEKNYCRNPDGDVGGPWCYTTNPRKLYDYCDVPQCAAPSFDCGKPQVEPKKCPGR
Sequence (P00747 581-810 limits assumed): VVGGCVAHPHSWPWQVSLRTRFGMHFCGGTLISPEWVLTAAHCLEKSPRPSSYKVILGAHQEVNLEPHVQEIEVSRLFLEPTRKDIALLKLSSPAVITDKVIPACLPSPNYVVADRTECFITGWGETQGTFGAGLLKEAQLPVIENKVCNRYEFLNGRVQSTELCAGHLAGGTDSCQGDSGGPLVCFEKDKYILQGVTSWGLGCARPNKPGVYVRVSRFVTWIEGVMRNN
Measured property: IC50

CC(O)[C@@H](C(=O)N[C@H](C)c1ccccc1)N(C)C(=O)[C@H](Cc1ccc([N+](=O)[O-])cc1)NC(=O)CCCN=C(N)N (some centres not stated)
0.23 µM

Turning now to a further compound:
Prompt line: Quick one: IC50 of CN[C@H](Cc1ccccc1)C(=O)N1CCC[C@H]1C(=O)N[C@H](C=O)CCCNC(=N)N ?
Response line: 25 µM

---

Below is a list of entries, each paired with its recorded IC50 value.
target: UniProt P00734; test: Concentration required to inhibit Human alpha-thrombin was determined
Respond with the figure and its unit, in that order.

CC(O)[C@H](NC(=O)[C@H](Cc1ccc([N+](=O)[O-])cc1)NC(=O)CCCN=C(N)N)C(=O)N[C@H](C)Cc1ccccc1 (stereo partly specified)
43 nM
CC(O)[C@H](NC(=O)[C@H](Cc1ccc([N+](=O)[O-])cc1)NC(=O)CCCN=C(N)N)C(=O)N[C@H](C)c1ccccc1 (stereo partly specified)
72 nM
CC(O)[C@H](NC(=O)[C@H](Cc1ccc([N+](=O)[O-])cc1)NC(=O)CCCN=C(N)N)C(=O)N[C@@H](C)c1ccccc1 (stereo partly specified)
310 nM
COC(=O)[C@@H](NC(=O)[C@@H](NC(=O)[C@H](Cc1ccc([N+](=O)[O-])cc1)NC(=O)CCCN=C(N)N)C(C)O)C1CCCCC1 (stereo partly specified)
16 nM
CC(O)[C@H](NC(=O)[C@H](Cc1ccc([N+](=O)[O-])cc1)NC(=O)CCCN=C(N)N)C(=O)N[C@H](CO)c1ccccc1 (stereo partly specified)
19 nM

Prompt line: // returns reported IC50 for input COC(=O)[C@@H](NC(=O)[C@@H](NC(=O)[C@H](Cc1ccc([N+](=O)[O-])cc1)NC(=O)CCCN=C(N)N)C(C)O)c1ccccc1 (stereo partly specified)
Response line: 8.3 nM

---

Listed here: compounds with reported pIC50 for UniProt P00760.
Sequence (P00760 whole entry): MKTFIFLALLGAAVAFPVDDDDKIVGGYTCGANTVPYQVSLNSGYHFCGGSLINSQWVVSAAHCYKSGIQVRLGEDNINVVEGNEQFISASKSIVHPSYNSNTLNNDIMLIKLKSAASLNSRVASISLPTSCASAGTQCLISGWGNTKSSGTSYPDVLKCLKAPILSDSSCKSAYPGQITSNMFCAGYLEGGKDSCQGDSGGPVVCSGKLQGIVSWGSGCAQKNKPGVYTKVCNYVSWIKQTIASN
Please keep in mind that pIC50 is minus log10 of the molar concentration; only the number is needed.

CC(O)[C@@H](C(=O)N[C@H](C)c1ccccc1)N(C)C(=O)[C@H](Cc1ccc([N+](=O)[O-])cc1)NC(=O)CCCN=C(N)N (some centres not stated)
8.10

Here's the next entry for you.
Prompt line: Under UniProt P00760: pIC50 value of CN[C@H](Cc1ccccc1)C(=O)N1CCC[C@H]1C(=O)N[C@H](C=O)CCCNC(=N)N ?
Response line: 7.35

---

molecular target: Tissue-type plasminogen activator (Homo sapiens, UniProt P00750); assay: Concentration required to inhibit Tissue-type plasminogen activator (t-PA) was determined
Sequence (P00750 whole entry): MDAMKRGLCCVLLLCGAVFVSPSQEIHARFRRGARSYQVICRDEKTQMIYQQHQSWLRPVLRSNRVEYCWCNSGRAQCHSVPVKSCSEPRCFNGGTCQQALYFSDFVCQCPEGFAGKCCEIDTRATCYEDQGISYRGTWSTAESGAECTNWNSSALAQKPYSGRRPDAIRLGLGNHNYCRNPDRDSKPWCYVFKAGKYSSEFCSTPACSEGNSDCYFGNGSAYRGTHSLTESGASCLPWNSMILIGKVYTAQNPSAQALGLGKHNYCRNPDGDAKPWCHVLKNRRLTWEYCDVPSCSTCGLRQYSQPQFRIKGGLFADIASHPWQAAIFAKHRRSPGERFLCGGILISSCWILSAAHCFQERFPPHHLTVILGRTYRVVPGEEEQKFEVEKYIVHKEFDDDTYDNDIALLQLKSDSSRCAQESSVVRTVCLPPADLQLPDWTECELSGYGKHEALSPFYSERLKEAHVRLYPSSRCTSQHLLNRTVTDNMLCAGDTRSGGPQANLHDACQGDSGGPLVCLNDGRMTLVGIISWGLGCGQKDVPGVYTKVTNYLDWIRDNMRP
Measured property: pIC50
A value of pIC50 is the negative decimal logarithm of a concentration given in moles per litre.

Prompt line: Query for Tissue-type plasminogen activator (Homo sapiens, UniProt P00750): what pIC50 does the record show for CN[C@H](Cc1ccccc1)C(=O)N1CCC[C@H]1C(=O)N[C@H](C=O)CCCNC(=N)N [EFEGATRAN] ?
Response line: 4.47
